# assay.comment: Serum stability in 90% human serum at 37° C., RP-HPLC
# Assay type: in vitro ADME
# Protocol: The new compounds were incubated with 90% human serum at 37° C. Aliquots were extracted at different incubation times. Methanol was added to precipitate the proteins from the serum, it was centrifuged and the supernatant was subject to a chromatographic analysis using RP-HPLC (Gradient: 20-80% B in 30 min, B=0.07% TFA in acetonitrile). The disappearance of the initial product was analyzed using the area corresponding to the initial product and half-life time was calculated.
Where a SMILES comes first, the peptide text is derived from it. Bridges are numbered along the chain shown (N, C = ends).
quantity.measured: half-life (h)
All answers are understood in h, so give the number only.

Take a look at these entries with their results.
C[C@@H](O)[C@@H]1NC(=O)[C@H](CCCCN)NC(=O)[C@H](Cc2c[nH]c3ccccc23)NC(=O)[C@H](Cc2ccccc2)NC(=O)[C@H](Cc2ccccc2)NC(=O)[C@H](CC(N)=O)NC(=O)[C@H](CCCCN)NC(=O)[C@@H](NC(=O)[C@@H]2CCCN2)CSSC[C@@H](C(=O)N[C@@H](CCCCN)C(=O)O)NC(=O)[C@H](CO)NC(=O)[C@H](CO)NC(=O)[C@H](Cc2ccccc2)NC1=O [cortistatin] (H-PCKNFFWKTFSSCK-OH; disulfide 2-13): 0.0333
CCCCCCCC(=O)N1CCC[C@H]1C(=O)N[C@H]1CSSC[C@@H](C(=O)N[C@@H](CCCCN)C(=O)O)NC(=O)[C@H](CO)NC(=O)[C@H]([C@@H](C)O)NC(=O)[C@H](Cc2ccccc2)NC(=O)[C@H]([C@@H](C)O)NC(=O)[C@H](CCCCN)NC(=O)[C@@H](Cc2c[nH]c3ccccc23)NC(=O)[C@H](Cc2ccccc2)NC(=O)[C@H](Cc2c(C)cc(C)cc2C)NC(=O)[C@H](CC(N)=O)NC(=O)[C@H](CCCCN)NC1=O [Compound 4]: 0.35
CCCCCCCC(=O)N1CCC[C@H]1C(=O)N[C@H]1CSSC[C@@H](C(=O)O)NC(=O)[C@H](CO)NC(=O)[C@H]([C@@H](C)O)NC(=O)[C@H](Cc2ccccc2)NC(=O)[C@H]([C@@H](C)O)NC(=O)[C@H](CCCCN)NC(=O)[C@@H](Cc2c[nH]c3ccccc23)NC(=O)[C@H](Cc2ccccc2)NC(=O)[C@H](Cc2c(C)cc(C)cc2C)NC(=O)[C@H](CC(N)=O)NC(=O)[C@H](CCCCN)NC1=O [Compound 5]: 35

# context switch: different molecule, same half-life
Task: For C[C@H](N)C(=O)NCC(=O)N[C@H]1CSSC[C@@H](C(=O)O)NC(=O)[C@H](CO)NC(=O)[C@H]([C@@H](C)O)NC(=O)[C@H](Cc2ccccc2)NC(=O)[C@H]([C@@H](C)O)NC(=O)[C@H](CCCCN)NC(=O)[C@@H](Cc2c[nH]c3ccccc23)NC(=O)[C@H](Cc2cc(F)cc(F)c2)NC(=O)[C@H](Cc2ccccc2)NC(=O)[C@H](CC(N)=O)NC(=O)[C@H](CCCCN)NC1=O [Compound 6] , write its half-life.
Result: 3.8
